As shown below, each of these molecules has a reported MIC value.
test system: Methicillin-Resistant Staphylococcus aureus Isolates; assay: MIC assay (NCCLS broth dilution), MRSA clinical isolates; type: cell-based; conditions: Staphylococcus aureus, MRSA isolate 1017, 22FEB06; read-out: Minimal Inhibitory Concentration
# number then unit; no other words

Consider the reported MIC for these molecules:
# Smiles str, MIC
rows = [
    ("Cc1onc(-c2ccccc2)c1C(=O)N[C@@H]1C(=O)N2[C@@H]1SC(C)(C)[C@@H]2C(=O)O", "16 µg/mL"),
    ("CN(C)c1ccc(O)c2c1C[C@H]1C[C@H]3[C@H](N(C)C)C(O)=C(C(N)=O)C(=O)[C@@]3(O)C(O)=C1C2=O", "0.12 µg/mL"),
    ("CN(C)[C@@H]1C(O)=C(C(N)=O)C(=O)[C@@]2(O)C(O)=C3C(=O)c4c(O)cccc4[C@@](C)(O)[C@H]3C[C@@H]12", "0.5 µg/mL"),
    ("CC(=O)NC[C@H]1CN(c2ccc(N3CCOCC3)c(F)c2)C(=O)O1", "2 µg/mL"),
]

Now let's try a different one.
Query: // returns reported MIC for input `CO[C@@H]1[C@@H](OC(N)=O)[C@@H](O)[C@H](Oc2ccc3c(O)c(NC(=O)c4ccc(O)c(CC=C(C)C)c4)c(=O)oc3c2C)OC1(C)C`
Response: 0.08 µg/mL
